The measurements presented in this section are drawn from the supplement of paper PMC4723716.

- Tested on: Plasmodium falciparum NF54 stage V gametocytes
- Method description: viability index relative to DMSO control (fraction); higher = less gametocyte killing
- Stated conditions: 2.5 µM, library set: Broad Institute Blood Stage, incubation time: 72 h
In all, about 9,900 compounds were measured (“viability index relative to DMSO control”: median about 1, lowest 2% from about 0.85 on). The list comes from a sample in which the lowest values are over-represented; it also holds close analogues and randomly drawn compounds.
Checkbox rule: viability index lower than 0.7 = met; viability index not lower than 0.7 = not met.

Ask: Determine if C[C@H](CO)N1C[C@H](C)[C@@H](CN(C)C(=O)C2CCCCC2)Oc2ncc(/C=C/c3ccccc3)cc2C1=O shows viability index strictly lower than 0.7.
Reply: not met

Ask: Same lookup for O=C(C1CCCCC1)N1[C@H](CO)[C@@H](c2ccccc2)C12CN(Cc1cccc(Cl)c1)C2 , please.
Reply: not met

Ask: Now consider COc1ccc(NC(=O)N2C[C@@]3(C2)CN([C@H](CO)c2c3c3ccc(OC)cc3n2C)C(=O)C2CCC2)cc1 and answer again.
Reply: not met

Ask: Same question, COc1cccc(-c2cccc(-c3nc(C(=O)NCc4ccc(Oc5ccccc5)cc4)cc4c3[C@@H](CCO)N(S(=O)C(C)(C)C)C4)c2)c1 (stereo partly specified) this time
Reply: not met

Ask: Input COc1ccccc1C#Cc1ccc([C@H]2[C@@H](CO)N(C(=O)C3CC3)[C@H]2C#N)cc1
Reply: not met

Ask: Could you do the same for COc1cccc(C#Cc2ccc([C@H]3[C@@H](CO)N(C(=O)C4CCCC4)[C@H]3C#N)cc2)c1 , please?
Reply: not met

Ask: Record: C[C@H](CO)N1C[C@H](C)[C@H](CN(C)C(=O)C2CCCCC2)Oc2ncc(C#Cc3cccc(F)c3)cc2C1=O
Reply: met

Ask: Next molecule up: C[C@H](CO)N1C[C@H](C)[C@H](CN(C)S(=O)(=O)c2ccc(C#N)cc2)OCc2ccccc2-c2c(n(C)c3ccccc23)C1=O
Reply: not met

Ask: Next entry: CC(C)(C)[S@@](=O)N1Cc2cc(C(=O)NCCc3ccncc3)nc(-c3cccc(-c4ccccc4)c3)c2[C@H]1CCO
Reply: not met

Ask: Also COc1ccccc1S(=O)(=O)N(C)C[C@@H]1Oc2cc(/C=C/c3ccccc3)ccc2S(=O)(=O)N([C@H](C)CO)C[C@H]1C , if possible.
Reply: not met

Ask: Entry to check: C[C@H](CO)N1C[C@H](C)[C@@H](CN(C)C(=O)Nc2ccc3c(c2)OCO3)Oc2ccc(NC(=O)Nc3ccc(C(F)(F)F)cc3)cc2CC1=O
Reply: not met

Ask: Note, next up: COCc1cn([C@@H]2C[C@@H]3O[C@@H](CO)CC[C@@H]3O[C@@H]2CCc2ccc(-c3ccc(OC)cc3)cc2)nn1
Reply: not met

Ask: One more molecule: C[C@@H]1CN([C@@H](C)CO)C(=O)c2cccc(NC(=O)c3nc4ccccc4s3)c2O[C@H]1CN(C)C(=O)Nc1ccc(C(F)(F)F)cc1
Reply: not met

Ask: Lookup O=C(c1ccccc1F)N1CC(=O)N2[C@H](C1)[C@@H](c1ccc(-c3cccnc3)cc1)[C@@H]2CO
Reply: not met

Ask: Quick one: COc1ccc2c3c([C@@H](CO)N(C[C@]33CCN(CC3)C(=O)Nc3cccc(F)c3)C(=O)C3CCCC3)n(C)c2c1
Reply: not met

Ask: What about COc1ccc(S(=O)(=O)N(C)C[C@@H]2OCc3ccccc3-c3c(n(C)c4ccccc34)C(=O)N([C@@H](C)CO)C[C@@H]2C)cc1 ?
Reply: not met

Ask: Same read-out for COc1ccc(C#Cc2ccc([C@@H]3[C@@H](CO)N4CCCCN(C(=O)Nc5cccc(F)c5)C[C@H]34)cc2)cc1 ?
Reply: met

Ask: Same question, C/C=C/c1ccc([C@H]2[C@@H](CO)N(CC3CCCCC3)[C@@H]2CNC(C)C)cc1 this time
Reply: met

Ask: Same thing, different molecule: COc1ccc(S(=O)(=O)N(C)C[C@H]2Oc3c(NC(=O)Nc4cccc5ccccc45)cccc3C(=O)N([C@@H](C)CO)C[C@H]2C)cc1
Reply: not met

Ask: Continue with COCc1cn([C@@H]2C[C@@H]3O[C@H](CO)CC[C@@H]3O[C@@H]2CCc2ccc(-c3ccc(OC)cc3)cc2)nn1
Reply: not met

Ask: Please do the same for COc1ccc(C#Cc2ccc3c(c2)O[C@@H](CN(C)C(=O)Nc2cccc(OC)c2)[C@@H](C)CN([C@@H](C)CO)S3(=O)=O)cc1 as well.
Reply: met

Ask: Also check Cc1ccc(S(=O)(=O)N(C)C[C@@H]2OCc3ccccc3-c3c(n(C)c4ccccc34)C(=O)N([C@@H](C)CO)C[C@@H]2C)cc1
Reply: not met

Ask: // query: C[C@H]1CN([C@@H](C)CO)C(=O)c2cc(C#Cc3cccc(F)c3)cnc2O[C@@H]1CN(C)C(=O)C1CCCCC1
Reply: not met

Ask: Similarly, CCCC(=O)N1CC[C@@]2(CC1)CN([C@@H](CO)c1[nH]c3cc(OC)ccc3c21)S(=O)(=O)c1ccc(C)cc1 ?
Reply: met

Ask: Moving on to the next molecule: C[C@@H]1CN([C@@H](C)CO)C(=O)c2cccc(NC(=O)Nc3ccccc3)c2O[C@@H]1CN(C)C(=O)Nc1ccc(F)cc1
Reply: not met

Ask: Also, COc1ccc2c3c([C@@H](CO)N(C[C@]33CCN(CC3)C(=O)Nc3cccc(F)c3)C(=O)C3CC3)n(C)c2c1 please.
Reply: not met

Ask: Ok, now C[C@@H]1CN([C@@H](C)CO)C(=O)c2cccc(NC(=O)c3ccc(-c4nccs4)cc3)c2O[C@@H]1CN(C)C(=O)Nc1cccc2ccccc12
Reply: not met

====

- Tested on: Plasmodium falciparum NF54 stage V gametocytes
- Method description: viability index relative to DMSO control (fraction); higher = less gametocyte killing
- Stated conditions: 2.5 µM, library set: Broad Institute DOS, incubation time: 72 h
Over roughly 9,900 compounds, “viability index relative to DMSO control” has its median near 1; the lowest 2% begin near 0.85. Only a selection was taken, and the lowest values are over-represented in it overall.
Assay endpoint: viability index
Write the number on its own, no unit after it.

Ask: // viability index lookup, key: C[C@H](CO)N1C[C@H](C)[C@H](CN(C)Cc2ccccc2C(F)(F)F)OCc2ccccc2-c2ccccc2C1=O
Reply: 1

Ask: Can you check CC(C)(C)[S@@](=O)N1Cc2cc(C(=O)NC3CCC3)nc(-c3cccc(Br)c3)c2[C@H]1CCO next?
Reply: 0.994

Ask: Now consider CCCN(C)C[C@H]1OCc2ccccc2-c2ccccc2C(=O)N([C@@H](C)CO)C[C@H]1C and answer again.
Reply: 0.89

Ask: Record: O=C(C1CCOCC1)N1[C@@H](CO)[C@@H](c2ccccc2)C12CN(Cc1cccc(Cl)c1)C2
Reply: 1.1

Ask: Do the same for COc1ccc2c3c([C@H](CO)N(C[C@]33CN(Cc4ccccc4F)C3)C(=O)Nc3ccc(F)cc3)n(C)c2c1 please
Reply: 1

Ask: Now the same for C[C@@H]1CN([C@@H](C)CO)C(=O)c2ccccc2-c2ccccc2CO[C@H]1CN(C)Cc1cccc(C(=O)O)c1
Reply: 0.987

Ask: What do you have for COc1ccc2c3c([C@@H](CO)N(C[C@]33CN(C3)C(=O)Cc3ccncc3)C(=O)Nc3ccc(F)cc3)n(C)c2c1 ?
Reply: 0.974

Ask: Query C[C@@H]1CN([C@H](C)CO)C(=O)c2ccccc2-c2ccccc2CO[C@@H]1CN(C)Cc1ccccc1C(F)(F)F next
Reply: 0.806

Ask: Param item: CN1c2ccc(-c3ccc(F)cc3)cc2[C@@H]2[C@@H](CCN2C(=O)Cc2cccnc2)[C@@H]1CO
Reply: 1.09

Ask: Now this one: O=C(C1CCOCC1)N1[C@H](CO)[C@@H](c2ccccc2)C12CN(Cc1cccc(Cl)c1)C2
Reply: 1.1

Ask: And what about the compound C[C@@H]1CN([C@@H](C)CO)C(=O)c2ccccc2-c2ccccc2CO[C@@H]1CN(C)Cc1cccc2c1OCCCO2 ?
Reply: 1

Ask: # iterate: C[C@@H]1CN([C@@H](C)CO)C(=O)c2ccccc2-c2ccccc2CO[C@H]1CN(C)Cc1ccccc1C(F)(F)F
Reply: 0.883

Ask: Another compound: C[C@@H]1CN([C@@H](C)CO)C(=O)c2ccccc2-c2ccccc2CO[C@@H]1CN(C)Cc1cccc(C(=O)O)c1
Reply: 0.974

Ask: Queued: C[C@H]1CN([C@@H](C)CO)C(=O)c2ccccc2-c2ccccc2CO[C@H]1CN(C)Cc1ccccc1C(F)(F)F
Reply: 0.726

Ask: Query C[C@@H]1CN([C@H](C)CO)C(=O)c2ccccc2-c2ccccc2CO[C@@H]1CN(C)Cc1cccc(C(=O)O)c1 next
Reply: 0.958

Ask: Thanks! And C[C@@H]1CN([C@@H](C)CO)C(=O)c2ccccc2-c2ccccc2CO[C@@H]1CN(C)Cc1ccccc1C(F)(F)F ?
Reply: 0.828
